Each recorded value in this set is attributed to patent US20190070251A1.

Molecular target: human µ opioid receptor (human), P35372
Sequence (P35372 whole entry): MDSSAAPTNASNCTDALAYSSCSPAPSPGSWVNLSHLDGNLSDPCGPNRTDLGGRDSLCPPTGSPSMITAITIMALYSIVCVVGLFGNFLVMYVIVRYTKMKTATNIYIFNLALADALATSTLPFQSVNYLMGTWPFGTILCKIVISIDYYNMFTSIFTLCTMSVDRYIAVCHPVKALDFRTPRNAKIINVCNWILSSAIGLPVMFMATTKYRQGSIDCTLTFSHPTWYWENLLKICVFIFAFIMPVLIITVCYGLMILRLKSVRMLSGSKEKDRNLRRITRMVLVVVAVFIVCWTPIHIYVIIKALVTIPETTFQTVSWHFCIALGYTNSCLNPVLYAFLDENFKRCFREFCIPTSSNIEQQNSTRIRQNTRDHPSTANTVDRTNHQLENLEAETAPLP
Assay: radioligand competition with [3H]naloxone (5 nM), membranes of CHO-K1 cells with recombinant human µ opioid receptor; Ki by Cheng-Prusoff
reported-property: pKi
By convention, pKi is the negative base-10 log of a molar concentration.

Would you kindly share the measured pKi for YAGF (modifications not checked) [Biphalin] ?
8.33
